# Tested On: UniProt:P21453
# Sequence (P21453 whole entry): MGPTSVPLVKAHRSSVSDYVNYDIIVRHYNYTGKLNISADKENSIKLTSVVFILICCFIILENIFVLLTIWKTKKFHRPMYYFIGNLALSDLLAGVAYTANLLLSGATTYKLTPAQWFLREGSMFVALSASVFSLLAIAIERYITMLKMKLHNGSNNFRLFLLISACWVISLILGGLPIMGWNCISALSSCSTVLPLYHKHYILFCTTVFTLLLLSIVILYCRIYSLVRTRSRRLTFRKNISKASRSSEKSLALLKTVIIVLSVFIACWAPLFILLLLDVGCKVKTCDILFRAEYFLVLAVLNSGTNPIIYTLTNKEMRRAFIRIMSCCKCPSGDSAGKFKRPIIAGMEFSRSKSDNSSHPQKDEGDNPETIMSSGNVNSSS
# Assay Method Text: Agonist activity at S1P1 (unknown origin) expressed in PathHunter CHO-K1 EDG1 beta-arrestin cells assessed as beta-arrestin2 recruitment incubated for 90 mins by chemiluminescence based assay
# Assay type: functional, cell-based
pEC50: −log10 of the molar value.
Label 1.0 for high-side pEC50 (at or above 7) and 0.0 for low-side pEC50 (below it).

Molecule: CC(C)Oc1ccc(COc2ccc3c(c2)CCN(S(=O)(=O)CCC(=O)O)C3)cc1C#N
Discrete Label: 1.0
//
Molecule: COC(=O)CCN1CCc2cc(OCc3ccc(OC(C)C)c(C#N)c3)ccc2C1
Discrete Label: 0.0
//
Molecule: CC(C)Oc1ccc(COc2ccc3c(c2)CCN(S(=O)(=O)CCC(=O)N(C)C)C3)cc1C#N
Discrete Label: 0.0
//
Molecule: CC(C)Oc1ccc(COc2ccc3c(c2)CCN(C(=O)CCCNS(C)(=O)=O)C3)cc1C#N
Discrete Label: 0.0
//
Molecule: CC(C)Oc1ccc(COc2ccc3c(c2)CCN(CCC(=O)O)C3)cc1C#N
Discrete Label: 0.0
//
Molecule: CC(C)Oc1ccc(COc2ccc3c(c2)CCN(S(=O)(=O)CCC(=O)O)C3C)cc1C#N (stereo not drawn)
Discrete Label: 0.0

----------
# Tested On: CYP3A4 (Homo sapiens)
# Sequence (P08684 whole entry): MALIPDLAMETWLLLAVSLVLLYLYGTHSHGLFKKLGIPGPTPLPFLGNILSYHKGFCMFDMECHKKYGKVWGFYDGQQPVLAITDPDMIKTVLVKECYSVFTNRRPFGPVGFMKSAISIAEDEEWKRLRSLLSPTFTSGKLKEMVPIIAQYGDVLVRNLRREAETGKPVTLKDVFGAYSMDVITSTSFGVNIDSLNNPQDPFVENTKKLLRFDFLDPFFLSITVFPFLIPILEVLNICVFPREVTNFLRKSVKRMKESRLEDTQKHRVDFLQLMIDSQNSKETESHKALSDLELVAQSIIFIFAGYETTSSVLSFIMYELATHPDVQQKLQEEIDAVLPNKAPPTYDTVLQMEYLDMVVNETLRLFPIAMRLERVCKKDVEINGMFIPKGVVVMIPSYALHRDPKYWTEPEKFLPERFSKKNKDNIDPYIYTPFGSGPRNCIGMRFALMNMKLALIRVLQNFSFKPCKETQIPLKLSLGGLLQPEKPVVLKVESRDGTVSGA
# Assay Method Text: Inhibition of CYP3A4 in human liver microsomes using midazolam as substrate assessed as residual activity at 10 uM preincubated for 5 mins followed by substrate addition and measured after 15 mins in presence of NADPH by LC-MS/MS analysis
# Format: ADME, Microsome
# Particulars: probe midazolam, time 20 min, read-out: Activity
In this section we review reported activity at 0.25 h, 10 µM values for a set of compounds.
Readout Kind: activity at 0.25 h, 10 µM (%)

Compound String: CC(C)Oc1ccc(COc2ccc3c(c2)CCN(S(=O)(=O)CCC(=O)O)C3)cc1C#N
Numeric Result: 87.5
--
Compound String: CC(C)Oc1ccc(COc2ccc3c(c2)CCCN(S(=O)(=O)CC(=O)O)C3)cc1C#N
Numeric Result: 87.7
--
Compound String: CC(C)Oc1ccc(COc2ccc3c(n2)CCN(S(=O)(=O)CCC(=O)O)C3)cc1C#N
Numeric Result: 85.4
